PROPERTY MEASURED: melting point

Query :: // query melting point value for entry CC(C)(Sc1ccc(OCc2ccc3cn(-c4ccc(C(F)(F)F)cc4)nc3c2)cc1)C(=O)O [Example 55]
Result :: 133 to 135 °C

Query :: // query melting point value for entry Cc1cc(OC(C)c2cccc3cn(-c4ccc(C(F)(F)F)cc4)nc23)ccc1CCC(=O)O (racemic) [Example 12]
Result :: 66 to 68 °C

Query :: // query melting point value for entry Cc1cc(SCc2cccc3cnn(-c4ccc(C(F)(F)F)cc4)c23)ccc1CCC(=O)O [Example 33]
Result :: 120 to 123 °C

Query :: // query melting point value for entry CC(C)(Oc1ccc(OCc2cccc3cn(-c4ccc(C(F)(F)F)cc4)nc23)cc1)C(=O)O [Example 39]
Result :: 178 to 180 °C

Query :: // query melting point value for entry Cc1cc(OCCc2cccc3cn(-c4ccc(C(F)(F)F)cc4)nc23)ccc1OC(C)(C)C(=O)O [Example 48]
Result :: 133 to 135 °C

Query :: // query melting point value for entry Cc1cc(SC(C)c2ccc3cn(-c4ccc(C(F)(F)F)cc4)nc3c2)ccc1OC(C)(C)C(=O)O (racemic) [Example 60]
Result :: 114 to 116 °C

Query :: // query melting point value for entry Cc1cc(SC(C)c2cccc3cn(-c4ccc(C(F)(F)F)cc4)nc23)ccc1CCC(=O)O (racemic) [Example 9]
Result :: 59 to 61 °C

Query :: // query melting point value for entry Cc1cc(OCc2ccc3cn(-c4ccc(C(F)(F)F)cc4)nc3c2)ccc1OC(C)(C)C(=O)O [Example 51]
Result :: 119 to 121 °C

Query :: // query melting point value for entry CC(C)(Oc1ccc(SCc2ccc3nn(-c4ccc(C(F)(F)F)cc4)cc3c2)cc1)C(=O)O [Example 63]
Result :: 159 to 161 °C

Query :: // query melting point value for entry CC(Oc1ccc(SC(C)(C)C(=O)O)cc1)c1ccc2nn(-c3ccc(C(F)(F)F)cc3)cc2c1 (racemic) [Example 67]
Result :: 153 to 155 °C

Query :: // query melting point value for entry CCc1cc(SCc2cccc3cn(-c4ccc(C(F)(F)F)cc4)nc23)ccc1OCC(=O)O [Example 3]
Result :: 159 to 161 °C

Query :: // query melting point value for entry Cc1cc(OCc2cccc3cn(-c4ccc(C(F)(F)F)cc4)nc23)ccc1OC(C)(C)C(=O)O [Example 37]
Result :: 165 to 167 °C

Query :: // query melting point value for entry CC(C)(Sc1ccc(OCc2ccc3nn(-c4ccc(C(F)(F)F)cc4)cc3c2)cc1)C(=O)O [Example 62]
Result :: 192 to 194 °C

Query :: // query melting point value for entry CC(C)(Sc1ccc(OCc2cccc3c2cnn3-c2ccc(C(F)(F)F)cc2)cc1)C(=O)O [Example 80]
Result :: 168 to 170 °C

Query :: // query melting point value for entry Cc1cc(SC(CCC(F)(F)F)c2cccc3c2cnn3-c2ccc(C(F)(F)F)cc2)ccc1OC(C)(C)C(=O)O (racemic) [Example 88]
Result :: 205 to 210 °C

Query :: // query melting point value for entry CCc1cc(SCc2cccc3c2cnn3-c2ccc(C(F)(F)F)cc2)ccc1OCC(=O)O [Example 31]
Result :: 122 to 124 °C
